System under test: human recombinant α1b adrenoceptor (Homo sapiens)
Sequence (P35368 whole entry): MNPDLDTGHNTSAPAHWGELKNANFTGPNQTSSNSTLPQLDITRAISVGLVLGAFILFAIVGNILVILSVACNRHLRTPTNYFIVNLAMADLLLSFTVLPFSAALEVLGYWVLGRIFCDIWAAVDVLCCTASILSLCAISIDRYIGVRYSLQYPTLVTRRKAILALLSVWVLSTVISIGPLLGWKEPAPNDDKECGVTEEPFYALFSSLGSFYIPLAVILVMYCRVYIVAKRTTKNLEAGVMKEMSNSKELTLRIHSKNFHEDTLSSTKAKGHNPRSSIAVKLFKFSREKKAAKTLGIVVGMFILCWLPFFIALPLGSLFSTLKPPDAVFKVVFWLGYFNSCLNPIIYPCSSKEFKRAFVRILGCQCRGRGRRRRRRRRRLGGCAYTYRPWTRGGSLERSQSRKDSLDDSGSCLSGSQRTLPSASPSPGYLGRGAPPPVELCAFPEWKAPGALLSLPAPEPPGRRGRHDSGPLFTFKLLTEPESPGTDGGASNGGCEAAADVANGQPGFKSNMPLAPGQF
Experiment description: Radioligand binding ([3H]prazosin) on membranes of CHO cells expressing cloned α1b adrenoceptor
Test settings: human cloned receptor, CHO cell membranes, 0.2 nM [3H]prazosin; read-out: Affinity (Ki) α1b
Can you tell me log10(Ki) for the items I'm about to list?
Values are log10 of Ki in nM.

Ask: Recorded log10(Ki) for O=C1CC2(CCCC2)CC(=O)N1CCN1CCN(c2cc(Br)ccc2Br)CC1 , please?
Result: 1.68

Ask: Here is the next compound: O=C1CC2(CCCC2)CC(=O)N1CCN1CCN(c2cc(F)ccc2Cl)CC1
Result: 1.00

Ask: Here is the next compound: Cc1ccc(Cl)c(N2CCN(CCN3C(=O)CC4(CCCC4)CC3=O)CC2)c1
Result: 2.29

Ask: Here is the next compound: O=C1CC2(CCCC2)CCN1CCN1CCN(c2cc(Cl)ccc2Cl)CC1
Result: 1.03

Ask: Here is the next compound: O=C1CC2(CCCC2)CC(=O)N1CCN1CCN(c2cc(Cl)ccc2Cl)CC1
Result: 1.00

Report log10(Ki) for every entry below.
1. CN(CCN1C(=O)CC2(CCCC2)CC1=O)CCN(C)c1cc(Cl)ccc1Cl
2. N#Cc1ccc(Cl)cc1N1CCN(CCN2C(=O)CC3(CCCC3)CC2=O)CC1
3. CCC1(C)CC(=O)N(CCN2CCN(c3cc(Cl)ccc3Cl)CC2)C(=O)C1
4. Cc1ccc(F)c(N2CCN(CCN3C(=O)CC4(CCCC4)CC3=O)CC2)c1
5. O=C1CCCC(=O)N1CCN1CCN(c2cc(Cl)ccc2Cl)CC1

Result:
2.96
1.23
1.64
2.08
1.73
